Test: Solubility in various solvents
Format: physicochemical
Conditions: 15% glycerol in water, aqueous with cosolvent or surfactant or cyclodextrin; 15% Glycerol-H2O
value-kind: solubility

Suppose we examine the compound Cc1cn([C@@H]2C[C@@H](O)[C@H](CNC(=O)CCN3C(=O)c4cc(Oc5cccnc5)c5c6c(Oc7cccnc7)cc7c8c(cc(Oc9cccnc9)c(c9c(Oc%10cccnc%10)cc(c4c59)C3=O)c86)C(=O)N(CCC(=O)NC[C@H]3O[C@@H](n4cc(C)c(=O)[nH]c4=O)C[C@@H]3O)C7=O)O2)c(=O)[nH]c1=O [Compound 1] ; what solubility value has been reported?
~50 µM

---

Test: Solubility in various solvents
Assay type: physicochemical
Conditions: 30% glycerol in water, aqueous with cosolvent or surfactant or cyclodextrin; 30% Glycerol-H2O
value-kind: solubility

Looking for the measured solubility of Cc1cn([C@@H]2C[C@@H](O)[C@H](CNC(=O)CCN3C(=O)c4cc(Oc5cccnc5)c5c6c(Oc7cccnc7)cc7c8c(cc(Oc9cccnc9)c(c9c(Oc%10cccnc%10)cc(c4c59)C3=O)c86)C(=O)N(CCC(=O)NC[C@H]3O[C@@H](n4cc(C)c(=O)[nH]c4=O)C[C@@H]3O)C7=O)O2)c(=O)[nH]c1=O [Compound 1] , can you help?
> 86 µM

---

Assay: Solubility in various solvents
Type: physicochemical
Conditions: water
value-kind: solubility

Form field: reported solubility of `Cc1cn([C@@H]2C[C@@H](O)[C@H](CNC(=O)CCN3C(=O)c4cc(Oc5cccnc5)c5c6c(Oc7cccnc7)cc7c8c(cc(Oc9cccnc9)c(c9c(Oc%10cccnc%10)cc(c4c59)C3=O)c86)C(=O)N(CCC(=O)NC[C@H]3O[C@@H](n4cc(C)c(=O)[nH]c4=O)C[C@@H]3O)C7=O)O2)c(=O)[nH]c1=O`
~30 µM

---

Assay: Solubility in various solvents
Format: physicochemical
Conditions: 30% propylene glycol in water, aqueous with cosolvent or surfactant or cyclodextrin; 30% Propylene glycol-H2O
value-kind: solubility

Need solubility of `Cc1cn([C@@H]2C[C@@H](O)[C@H](CNC(=O)CCN3C(=O)c4cc(Oc5cccnc5)c5c6c(Oc7cccnc7)cc7c8c(cc(Oc9cccnc9)c(c9c(Oc%10cccnc%10)cc(c4c59)C3=O)c86)C(=O)N(CCC(=O)NC[C@H]3O[C@@H](n4cc(C)c(=O)[nH]c4=O)C[C@@H]3O)C7=O)O2)c(=O)[nH]c1=O` , thanks.
> 86 µM

---

Assay: Solubility in various solvents
Format: physicochemical
Conditions: isopropanol, organic solvent or mixture
value-kind: solubility

Request the reported solubility associated with `Cc1cn([C@@H]2C[C@@H](O)[C@H](CNC(=O)CCN3C(=O)c4cc(Oc5cccnc5)c5c6c(Oc7cccnc7)cc7c8c(cc(Oc9cccnc9)c(c9c(Oc%10cccnc%10)cc(c4c59)C3=O)c86)C(=O)N(CCC(=O)NC[C@H]3O[C@@H](n4cc(C)c(=O)[nH]c4=O)C[C@@H]3O)C7=O)O2)c(=O)[nH]c1=O`
> 86 µM

---

Assay: Solubility in various solvents
Type: physicochemical
Conditions: ethanol, organic solvent or mixture
value-kind: solubility

Item `Cc1cn([C@@H]2C[C@@H](O)[C@H](CNC(=O)CCN3C(=O)c4cc(Oc5cccnc5)c5c6c(Oc7cccnc7)cc7c8c(cc(Oc9cccnc9)c(c9c(Oc%10cccnc%10)cc(c4c59)C3=O)c86)C(=O)N(CCC(=O)NC[C@H]3O[C@@H](n4cc(C)c(=O)[nH]c4=O)C[C@@H]3O)C7=O)O2)c(=O)[nH]c1=O` has what recorded solubility?
~100 µM

---

Experiment: Solubility in various solvents
Format: physicochemical
Conditions: ethanol-dichloromethane (5:1), organic solvent or mixture; Ethanol-DCM (5:1)
Description: Compound 1 is a dark red color solid with solubility in water about 30 μM, much higher than detection concentration (0.3˜5 μM) that is commonly used in fluorometer or portable detector. Various solvents have been tested in the following table. For transferring Compound 1 as aliquots, ethanol-dichloromethane (DCM) (5:1) is a good solvent giving good solubility and easy evaporation of solvent.
value-kind: solubility

Item under review: `Cc1cn([C@@H]2C[C@@H](O)[C@H](CNC(=O)CCN3C(=O)c4cc(Oc5cccnc5)c5c6c(Oc7cccnc7)cc7c8c(cc(Oc9cccnc9)c(c9c(Oc%10cccnc%10)cc(c4c59)C3=O)c86)C(=O)N(CCC(=O)NC[C@H]3O[C@@H](n4cc(C)c(=O)[nH]c4=O)C[C@@H]3O)C7=O)O2)c(=O)[nH]c1=O` . Reported solubility?
> 342 µM

---

Assay: Solubility in various solvents
Assay type: physicochemical
Conditions: DMF-water (7:3), organic solvent or mixture; DMF-H2O (7:3)
value-kind: solubility

// solubility lookup, key: `Cc1cn([C@@H]2C[C@@H](O)[C@H](CNC(=O)CCN3C(=O)c4cc(Oc5cccnc5)c5c6c(Oc7cccnc7)cc7c8c(cc(Oc9cccnc9)c(c9c(Oc%10cccnc%10)cc(c4c59)C3=O)c86)C(=O)N(CCC(=O)NC[C@H]3O[C@@H](n4cc(C)c(=O)[nH]c4=O)C[C@@H]3O)C7=O)O2)c(=O)[nH]c1=O`
> 200 µM

Data origin, for the record: patent US20150204836A1
